- Target under test: T1, recombinant soluble human IL-6 receptor (SR344) (human, UniProt P08887 20-344, biotinylated (sites not given) where immobilized via streptavidin or used in phage ELISA)
- T1 construct: also called soluble IL-6 receptor; membrane-type IL-6 receptor (when biotinylated and immobilized on the chip)
- T1 sequence (looked up): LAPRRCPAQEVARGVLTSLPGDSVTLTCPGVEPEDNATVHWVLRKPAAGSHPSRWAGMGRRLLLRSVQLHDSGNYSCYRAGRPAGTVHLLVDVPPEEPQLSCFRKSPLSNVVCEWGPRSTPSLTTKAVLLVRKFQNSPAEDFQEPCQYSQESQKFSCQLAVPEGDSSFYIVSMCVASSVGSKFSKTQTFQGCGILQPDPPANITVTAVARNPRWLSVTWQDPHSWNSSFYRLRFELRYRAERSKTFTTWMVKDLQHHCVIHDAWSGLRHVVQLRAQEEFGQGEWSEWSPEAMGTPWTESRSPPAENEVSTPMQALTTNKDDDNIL
- Experimental protocol: SPR Biacore T100, antibody on protein A/G chip, SR344 analyte, pH 5.8, 37 C
Readout name: kon (M⁻¹ s⁻¹)
Number in M⁻¹ s⁻¹, nothing else.

| Binder | Display unit | Numeric value |
| --- | --- | --- |
| H170/L82 (antibody, IgG1, V domains shown, expressed and purified as IgG (IgG1); also called H170/L82-IgG1) VH: QVQLQESGPGLVKPSETLSLTCAVSGHSISHHHAHSWVRQPPGEGLEWIGYISYSGITHYNPHLKGRVTISRDTSKNQFSLKLSSVTAADTAAYYCARVLARITAMDHWGEGTLVTVSS VL: DIQMTQSPSSLSASVGDSVTITCQASQDISSHLNWYQQKPGKAPELLIYYGSHLHSGVPSRFSGSGSGTDFTFTISSLEAEDAATYYCGQGNRLPYTFGQGTKVEIE | M⁻¹ s⁻¹ | 26000 |
| humanized PM1 antibody (wild type, WT) (antibody, human IgG1, kappa, V domains shown, IgG1; also called WT-IgG1; wild type humanized anti-IL-6 receptor antibody) VH: QVQLQESGPGLVRPSQTLSLTCTVSGYSITSDHAWSWVRQPPGRGLEWIGYISYSGITTYNPSLKSRVTMLRDTSKNQFSLRLSSVTAADTAVYYCARSLARTTAMDYWGQGSLVTVSS VL: DIQMTQSPSSLSASVGDRVTITCRASQDISSYLNWYQQKPGKAPKLLIYYTSRLHSGVPSRFSGSGSGTDFTFTISSLQPEDIATYYCQQGNTLPYTFGQGTKVEIKR | M⁻¹ s⁻¹ | 760000 |
| CLH5/L73 (antibody, IgG1, V domains shown, expressed and purified as IgG) VH: QVQLQESGPGLVKPSETLSLTCAVSGYSISHDHAWSWVRQPPGEGLEWIGHISYSGITNYNPHLKGRVTISRDTSKNQFSLKLSSVTAADTAAYYCARFLARITAHDHWGEGTLVTVSS VL: DIQMTQSPSSLSASVGDSVTITCQASQHISSHLNWYQQKPGKAPELLIYYGSHLHSGVPSRFSGSGSGTDFTFTISSLEAEDAATYYCGQGNRLPYTFGQGTKVEIE | M⁻¹ s⁻¹ | 380000 |

*Q* Quick one: kon for H3pI/L73 (antibody, IgG1, V domains shown, tested as IgG1; also called H3pI/L73-IgG1; H3pl/L73) VH: QVQLQESGPGLVKPSETLSLTCAVSGHSISHDHAHSWVRQPPGEGLEWIGYISYSGITNYNPSLKGRVTISRDTSKNQFSLKLSSVTAADTAAYYCARSLARTTAMDYWGEGTLVTVSS VL: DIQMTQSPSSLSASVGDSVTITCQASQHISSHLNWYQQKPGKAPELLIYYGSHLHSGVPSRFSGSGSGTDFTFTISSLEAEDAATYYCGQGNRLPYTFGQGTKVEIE ?
*A* 170000

Ref: patent US20180282719A1
